target: IRAK-4 (Homo sapiens); assay: IRAK-4 ELISA, PBMC degradation; assay type: cell-based; design: endogenous in cells; host or cells: PBMC; settings: treated overnight
Sequence (Q9NWZ3 whole entry): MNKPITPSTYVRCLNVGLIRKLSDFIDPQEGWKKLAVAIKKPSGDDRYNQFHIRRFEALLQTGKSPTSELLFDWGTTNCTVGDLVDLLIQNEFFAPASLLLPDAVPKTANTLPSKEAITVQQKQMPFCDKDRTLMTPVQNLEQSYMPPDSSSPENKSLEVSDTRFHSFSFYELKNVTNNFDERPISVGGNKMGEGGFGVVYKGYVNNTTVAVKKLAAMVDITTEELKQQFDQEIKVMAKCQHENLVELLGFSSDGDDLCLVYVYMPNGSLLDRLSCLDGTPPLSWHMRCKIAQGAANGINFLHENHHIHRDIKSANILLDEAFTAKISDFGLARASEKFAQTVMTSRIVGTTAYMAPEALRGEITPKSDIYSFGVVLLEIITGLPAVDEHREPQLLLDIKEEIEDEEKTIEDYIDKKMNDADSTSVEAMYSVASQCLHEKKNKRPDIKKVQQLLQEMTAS
reported property: PBMC DC90

input: Supply measured PBMC DC90 of CC(C)Oc1cc2c(cc1NC(=O)c1cnn3cccnc13)CN(C1CCN(CC3CN(c4ccc5c(c4)CN(C4CCC(=O)NC4=O)C5=O)C3)CC1)C2=O (stereo not drawn) [Example 4] in your reply.
output: 4 nM

* * *

biological target: IRAK-4 (Homo sapiens); test: IRAK-4 ELISA, PBMC degradation; assay type: cell-based; set-up: endogenous in cells; host or cells: PBMC; conditions: treated overnight
Give measured Dmax for each item. Keep answers brief.

input: Supply measured Dmax of O=C1CCC(N2Cc3cc(N4CC(N5CCC(N6Cc7cc(NC(=O)c8cnn9cccnc89)c(N8CCOCC8)nc7C6=O)CC5)C4)ccc3C2=O)C(=O)N1 (centres unmarked) in your reply.
output: 80 to 90%

input: Supply measured Dmax of CC(C)Oc1cc2c(cc1NC(=O)c1cnn3cccnc13)CN(C1CCN(CC3(O)CN(c4ccc5c(c4)C(=O)N(C4CCC(=O)NC4=O)C5=O)C3)CC1)C2=O (centres unmarked) in your reply.
output: ≥ 90%

input: Supply measured Dmax of CCN([C@H]1CC[C@H](n2cc3cc(NC(=O)c4cnn5cccnc45)c(OCC4CC4)cc3n2)CC1)[C@H]1C[C@H](Oc2ccc3c(c2)C(=O)N(C2CCC(=O)NC2=O)C3=O)C1 (some centres unmarked) in your reply.
output: ≥ 90%

input: Supply measured Dmax of CC(C)Oc1cc2nn(C3CCN(CC4CN(c5ccc6c(c5)C(=O)N(C5CCC(=O)NC5=O)C6=O)C4)CC3)cc2cc1NC(=O)c1cnn2cccnc12 (centres unmarked) in your reply.
output: ≥ 90%

input: Supply measured Dmax of CC(C)Oc1cc2nn(C[C@@H](F)C3CCN(CC4(F)CN(c5ccc6c(c5)C(=O)N(C5CCC(=O)NC5=O)C6=O)C4)CC3)cc2cc1NC(=O)c1cnn2cccnc12 (some centres unmarked) in your reply.
output: 80 to 90%

input: Supply measured Dmax of CC(C)Oc1cc2c(cc1NC(=O)c1cnn3cccnc13)CN(C1CCN(C(C)(C)C3CN(c4ccc(F)c(C(=O)NC5CCC(=O)NC5=O)c4)C3)CC1)C2=O (centres unmarked) in your reply.
output: 80 to 90%

input: Supply measured Dmax of O=C1CCC(N2C(=O)c3ccc(N4CC(CN5CCC(N6Cc7cc(NC(=O)c8cnn9cccnc89)c(OCC8CC8)cc7C6=O)CC5)C4)cc3C2=O)C(=O)N1 (centres unmarked) in your reply.
output: ≥ 90%

input: Supply measured Dmax of CC1(N2CCC(n3cc4cc(NC(=O)c5cnn6cccnc56)c(OCC5CC5)cc4n3)CC2)CN(c2ccc3c(c2)C(=O)N(C2CCC(=O)NC2=O)C3=O)C1 (centres unmarked) in your reply.
output: 80 to 90%

input: Supply measured Dmax of O=C1CCC(N2Cc3cc(N4CCC(O)(CN5CCC(n6cc7cc(NC(=O)c8cnn9cccnc89)c(OCC8CC8)cc7n6)CC5)CC4)ccc3C2=O)C(=O)N1 (centres unmarked) in your reply.
output: 80 to 90%

input: Supply measured Dmax of COc1cc2c(cc1N1CC(F)(CN3CCC(n4cc5cc(NC(=O)c6cnn7cccnc67)c(OCC6CC6)cc5n4)CC3)C1)C(=O)N(C1CCC(=O)NC1=O)C2=O (centres unmarked) in your reply.
output: 80 to 90%

input: Supply measured Dmax of CC(C)Oc1cc2c(cc1NC(=O)c1cnn3cccnc13)CN(C1CCN(CC3CCN(c4ccc5c(c4)C(=O)N([C@H]4CCC(=O)NC4=O)C5=O)CC3)CC1)C2=O in your reply.
output: ≥ 90%
